# protocol_text: NCI Yeast Anticancer Drug Screen. Data for the rad50 strain (AID 155);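 further: 0% = growth of vehicle-only cultures of the same strain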
# settings: S. cerevisiae rad50 strain growth inhibition, stronger effect = higher value; at 50.0 µM unless noted
Compounds without any hit were thinned out: in the full panel of roughly 79,000, 15% have a hit.
Entries and their growth inhibition
Express your answer in %, writing the number without its unit.

compound	scale_unit	observed_value
CC1(C)CCC2=C(O1)C(=O)c1ccccc1C2=O	%	13.8
Cc1c(C(=O)CC(=O)C(=O)Nc2ccc(Cl)c(Cl)c2)[n+](=O)c2ccccc2n1[O-]	%	12.6

Ask: State its growth inhibition: C(/C=N/Nc1ccccc1)=N\Nc1ccccc1
Reply: 24.1

Ask: State its growth inhibition: O=c1oc2ccccc2c(O)c1Cc1ccccc1Cc1c(O)c2ccccc2oc1=O
Reply: 4.4

Ask: State its growth inhibition: CCc1cccc(CC)c1N1C(=O)CC(Sc2ccccc2N)C1=O (stereo not drawn)
Reply: -18.1

Ask: State its growth inhibition: O=C1CCCC(=O)N1n1c(Cc2ccc(Cl)cc2)n[nH]c1=O
Reply: -31.6

Ask: State its growth inhibition: Cc1cccc(C2=N/C(=C\c3ccc(N(C)C)cc3)C(=O)O2)c1
Reply: 20.2

Ask: State its growth inhibition: O=C(/C(=C/c1ccccc1)c1ccccc1)N1c2ccccc2CC1c1c[nH]c2ccccc12 (stereo not drawn)
Reply: 17.4

###

Entries and their growth inhibition
# protocol_text: NCI Yeast Anticancer Drug Screen. Data for the sgs1 mgt1 strain (AID 161);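 further: 0% = growth of cultures given vehicle only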
# settings: S. cerevisiae sgs1 mgt1 strain, stronger effect = higher value; at 50.0 µM unless noted
Compounds without any hit were thinned out: in the full panel of roughly 79,000, 15% have a hit.
Express your answer in %, writing the number without its unit.

molecule	scale_unit	growth inhibition
CN(C)CC(O)(C(=O)c1ccccc1)c1ccccc1 (stereo not drawn)	%	-13.5
NC(=O)N/N=C/c1ccc([N+](=O)[O-])cc1	%	-6.55
CCOc1ccc(OCC)cc1	%	-9.05
O=Nc1c(O)c2ccccc2[nH]c1=O	%	34.6
CC(=O)OC(C(N)=O)c1ccccc1 (stereo not drawn)	%	-3.3
COc1cc(OC)c2c(c1)C(C)(C)CCC2(C)C	%	-7.45
NCC1COC(c2ccccc2)(c2ccccc2)O1 (stereo not drawn)	%	-12.9
C[N+]1(C)N=C([O-])N(c2ccccc2Cl)C1=O	%	-6.6

Ask: State its growth inhibition: CC1=N[C@@H](C(=O)NCC(N)=O)Cc2c1[nH]c1ccccc21
Reply: 8.65

Ask: State its growth inhibition: Cc1ccc(OC/C=C/CSc2ccc(Br)cc2)cc1
Reply: 2.4

Ask: State its growth inhibition: O=S(=O)(O)c1cc(S(=O)(=O)O)c2cc(O)ccc2c1
Reply: 13.4

Ask: State its growth inhibition: CC(=O)N1C=CC(=Cc2ccccc2)C=C1
Reply: -30.6

Ask: State its growth inhibition: Oc1[nH]c2ccccc2c1N=NC(=S)Nc1ccccc1
Reply: -2.3

###

# protocol_text: NCI Yeast Anticancer Drug Screen. Data for the rad50 strain (AID 155);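 further: 0% = growth of vehicle-only cultures of the same strain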
# settings: S. cerevisiae rad50 strain growth inhibition, stronger effect = higher value; at 50.0 µM unless noted
This is part of a sample that, as a whole, favours compounds with a hit. Of some 79,000 tested, about 15% had one in any assay. Active and inactive are the calls of the source. No stated cut-off is given here; in the data, active means growth inhibition above about 70%; inactive means the rest.
Entries and their growth inhibition

Check out these entries, answers already filled in.
compound	growth inhibition
O=C1/C(=C/c2ccccc2)CCC2CCCCC12 (stereo not drawn)	22.1% (inactive)
CCc1ccc(O)cc1O	-18.4% (inactive)
O=[N+]([O-])c1ccc(/C(=C\c2ccc(-c3ccccc3)o2)S(=O)(=O)c2ccccc2)o1	26.2% (inactive)
COC(=O)C1(C)CCCC2(C)C1CCC1(O)C(O)C(C(C)C)=CCC21 (stereo not drawn)	4.3% (inactive)
O=C(NC1c2ccccc2Oc2ccccc21)OCCI	36.1% (inactive)

Ask: State its growth inhibition: NC(=O)c1ncc(Cl)cc1Cl
Reply: 21.1% (inactive)

Ask: State its growth inhibition: NC(=O)C(=CN1CC(=O)NC1=S)C(N)=O
Reply: -23.3% (inactive)

Ask: State its growth inhibition: CCC12CCCNC1c1c(n(C)c3ccccc13)C(C(=O)OC)C2 (stereo not drawn)
Reply: 36.9% (inactive)

Ask: State its growth inhibition: C=C1CC(C)(COc2ccc3ccc(=O)oc3c2)OC1=O (stereo not drawn)
Reply: 24.4% (inactive)

// data source = PubChem BioAssay (NCI)
